- target desc: rCX3CR1 (Rattus norvegicus)
- Construct: stably expresses a Ca2+ sensitive photo-protein
- experiment description: Ga16 assay, CX3CR1 agonism, Ca2+ sensitive photo-protein readout (FLIPRTETRA)
- stated conditions: rat CX3CR1 cell line
assay metric: EC50 (µM)

Would you please look over these solved cases?
{"compound": "CCN(CC)CC(C)(C)CNC(=O)c1cc2c(s1)CCCCCC2", "target desc": "rCX3CR1 (Rattus norvegicus)", "assay metric": "EC50", "value reported": 19.7}
{"compound": "O=C(NCC1(CN2CCC(O)C2)CCC1)c1cc2c(s1)CCCCCC2 (stereo not shown)", "target desc": "rCX3CR1 (Rattus norvegicus)", "assay metric": "EC50", "value reported": 11.4}
{"compound": "CC1CCCC1(CNC(=O)c1cc2c(s1)CCCCCC2)CN(C)C (single isomer, unassigned) [Example 60]", "target desc": "rCX3CR1 (Rattus norvegicus)", "assay metric": "EC50", "value reported": 18.9}
{"compound": "CC1CCCC1(CNC(=O)c1cc2c(s1)CCCCCC2)CN(C)C (single isomer, unassigned) [Example 61]", "target desc": "rCX3CR1 (Rattus norvegicus)", "assay metric": "EC50", "value reported": 15.2}
{"compound": "CN(C)CC1(CNC(=O)c2cc3c(s2)CCCCCC3)Cc2ccccc2C1", "target desc": "rCX3CR1 (Rattus norvegicus)", "assay metric": "EC50", "value reported": 18.8}
{"compound": "COC1(C)CCN(CC2(CNC(=O)c3cc4c(s3)CCCCCC4)CCCC2)CC1", "target desc": "rCX3CR1 (Rattus norvegicus)", "assay metric": "EC50", "value reported": 33.7}
{"compound": "O=C(NCC1(CN2CCCCC2)CCCC1)c1cc2c(s1)CCCCCC2", "target desc": "rCX3CR1 (Rattus norvegicus)", "assay metric": "EC50", "value reported": 20}
{"compound": "O=C(NCC1(CN2CCCC2)Cc2ccccc2C1)c1cc2c(s1)CCCCCC2", "target desc": "rCX3CR1 (Rattus norvegicus)", "assay metric": "EC50", "value reported": 19.6}
{"compound": "CN(CCO)CC1(CNC(=O)c2cc3c(s2)CCCCCCC3)CCCC1", "target desc": "rCX3CR1 (Rattus norvegicus)", "assay metric": "EC50", "value reported": 47}
{"compound": "O=C(NCC1(CN2CCC(O)C2)CCCC1)c1cc2c(s1)CCCCCC2 (single isomer, unassigned) [Example 63]", "target desc": "rCX3CR1 (Rattus norvegicus)", "assay metric": "EC50", "value reported": 9.7}

1: O=C(NCC1(CN2CCCC(O)C2)CCC1)c1cc2c(s1)CCCCCC2 (stereo not shown)
2: CCC(CC)(CNC(=O)c1cc2c(s1)CCCCCC2)CN1CCCC1
Returns: the label, 1 or 2 , whose recorded EC50 is the lower number. Please respond with the label that marks your chosen entry.
1

====

- target desc: rCX3CR1 (Rattus norvegicus, UniProt P35411)
- Construct: stably expresses a Ca2+ sensitive photo-protein
- Sequence (P35411 whole entry): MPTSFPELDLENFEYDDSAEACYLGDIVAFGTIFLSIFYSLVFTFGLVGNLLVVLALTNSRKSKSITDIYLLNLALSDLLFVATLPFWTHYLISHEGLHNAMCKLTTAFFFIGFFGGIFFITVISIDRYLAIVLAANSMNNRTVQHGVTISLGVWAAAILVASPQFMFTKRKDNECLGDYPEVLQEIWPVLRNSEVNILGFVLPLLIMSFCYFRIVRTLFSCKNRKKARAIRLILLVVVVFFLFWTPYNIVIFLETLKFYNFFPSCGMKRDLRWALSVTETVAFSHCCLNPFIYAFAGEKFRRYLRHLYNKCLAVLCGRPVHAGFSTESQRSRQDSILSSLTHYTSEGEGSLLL
- experiment description: Ga16 assay, CX3CR1 agonism, Ca2+ sensitive photo-protein readout (FLIPRTETRA)
- stated conditions: rat CX3CR1 cell line
pEC50: −log10 of the molar value.
assay metric: pEC50

P: COCCOC1CCN(CC(C)(C)CNC(=O)c2cc3c(s2)CCCCCC3)CC1 [Example 42]
Q: CCC(CC)(CNC(=O)c1cc2c(s1)CCCCCC2)CN(C)C [Example 8]
R: CN(C)CC1(CNC(=O)c2cc3c(s2)CCCCCC3)CCCOC1 (stereo not shown) [Example 37]
S: CC(C)OC1CCN(CC2(CNC(=O)c3cc4c(s3)CCCCCC4)CCC2)CC1 [Example 51]
From the items above, give an ordering by pEC50 that starts at the lowest reported number. Provide the labels, sequenced as the question asks.
P, S, Q, R
(P: 4.09, S: 4.46, Q: 4.70, R: 4.94)
